// reported Tmax for each item listed
Assay: pharmacokinetic study of five major components after oral administration of BZD (HPLC-QQQ MS)
Assay type: in vivo, Sprague–Dawley (SD) rats
Details: Sprague-Dawley, rat, systemic plasma, po, 15 g/kg, systemic plasma; rats, oral BZD 15 g/kg, n = 5; read-out: Tmax
READOUT: Tmax (h)

1. C[C@@H](CC[C@@]1(O)O[C@H]2C[C@H]3[C@@H]4CC[C@@H]5C[C@@H](O[C@@H]6O[C@H](CO)[C@H](O)[C@H](O)[C@H]6O[C@@H]6O[C@H](CO)[C@@H](O)[C@H](O)[C@H]6O)CC[C@]5(C)[C@H]4CC[C@]3(C)[C@H]2[C@@H]1C)CO[C@@H]1O[C@H](CO)[C@@H](O)[C@H](O)[C@H]1O | 0.25
2. C[C@H]1CC[C@@]2(OC1)O[C@H]1C[C@H]3[C@@H]4CC[C@@H]5C[C@@H](O[C@@H]6O[C@H](CO)[C@H](O)[C@H](O)[C@H]6O[C@@H]6O[C@H](CO)[C@@H](O)[C@H](O)[C@H]6O)CC[C@]5(C)[C@H]4CC[C@]3(C)[C@H]1[C@@H]2C | 4

---

Experiment: pharmacokinetic study of five major components after oral administration of BZD (HPLC-QQQ MS)
Assay type: in vivo, Sprague–Dawley (SD) rats
Conditions: Sprague-Dawley, rat, hepatic portal vein plasma, po, 15 g/kg, portal vein plasma; rats, oral BZD 15 g/kg, n = 5; read-out: AUC0–t
READOUT: AUC(0-t) (ng·h/mL)

1. C[C@@H](CC[C@@]1(O)O[C@H]2C[C@H]3[C@@H]4CC[C@@H]5C[C@@H](O[C@@H]6O[C@H](CO)[C@H](O)[C@H](O)[C@H]6O[C@@H]6O[C@H](CO)[C@@H](O)[C@H](O)[C@H]6O)CC[C@]5(C)[C@H]4CC[C@]3(C)[C@H]2[C@@H]1C)CO[C@@H]1O[C@H](CO)[C@@H](O)[C@H](O)[C@H]1O [Timosaponin BII, timosaponin BII] | 1090
2. C[C@H]1CC[C@@]2(OC1)O[C@H]1C[C@H]3[C@@H]4CC[C@@H]5C[C@@H](O[C@@H]6O[C@H](CO)[C@H](O)[C@H](O)[C@H]6O[C@@H]6O[C@H](CO)[C@@H](O)[C@H](O)[C@H]6O)CC[C@]5(C)[C@H]4CC[C@]3(C)[C@H]1[C@@H]2C [Timosaponin AIII, timosaponin AIII] | 583

---

Test: pharmacokinetic study of five major components after oral administration of BZD (HPLC-QQQ MS)
Format: in vivo, Sprague–Dawley (SD) rats
Details: Sprague-Dawley, rat, cerebellum, po, 15 g/kg, cerebellum; rats, oral BZD 15 g/kg, n = 5; read-out: Tmax
READOUT: Tmax (min)

1. C[C@@H](CC[C@@]1(O)O[C@H]2C[C@H]3[C@@H]4CC[C@@H]5C[C@@H](O[C@@H]6O[C@H](CO)[C@H](O)[C@H](O)[C@H]6O[C@@H]6O[C@H](CO)[C@@H](O)[C@H](O)[C@H]6O)CC[C@]5(C)[C@H]4CC[C@]3(C)[C@H]2[C@@H]1C)CO[C@@H]1O[C@H](CO)[C@@H](O)[C@H](O)[C@H]1O [Timosaponin BII, timosaponin BII] | 15

---

// reported Tmax for each item listed
Test: pharmacokinetic study of five major components after oral administration of BZD (HPLC-QQQ MS)
Assay type: in vivo, Sprague–Dawley (SD) rats
Details: Sprague-Dawley, rat, hepatic portal vein plasma, po, 15 g/kg, portal vein plasma; rats, oral BZD 15 g/kg, n = 5; read-out: Tmax
READOUT: Tmax (h)

1) C[C@H]1CC[C@@]2(OC1)O[C@H]1C[C@H]3[C@@H]4CC[C@@H]5C[C@@H](O[C@@H]6O[C@H](CO)[C@H](O)[C@H](O)[C@H]6O[C@@H]6O[C@H](CO)[C@@H](O)[C@H](O)[C@H]6O)CC[C@]5(C)[C@H]4CC[C@]3(C)[C@H]1[C@@H]2C | 4
2) C[C@@H](CC[C@@]1(O)O[C@H]2C[C@H]3[C@@H]4CC[C@@H]5C[C@@H](O[C@@H]6O[C@H](CO)[C@H](O)[C@H](O)[C@H]6O[C@@H]6O[C@H](CO)[C@@H](O)[C@H](O)[C@H]6O)CC[C@]5(C)[C@H]4CC[C@]3(C)[C@H]2[C@@H]1C)CO[C@@H]1O[C@H](CO)[C@@H](O)[C@H](O)[C@H]1O | 0.25
